# subject-of-test: human TAS2R7 (Homo sapiens, UniProt Q9NYW3)
# Construct: first 45 residues of rat somatostatin receptor 3 (signal peptide) (N); expressed in transfected cells; host or cells: HEK293 (PEAKrapid, ATCC CRL-2828)
# Sequence (Q9NYW3 whole entry): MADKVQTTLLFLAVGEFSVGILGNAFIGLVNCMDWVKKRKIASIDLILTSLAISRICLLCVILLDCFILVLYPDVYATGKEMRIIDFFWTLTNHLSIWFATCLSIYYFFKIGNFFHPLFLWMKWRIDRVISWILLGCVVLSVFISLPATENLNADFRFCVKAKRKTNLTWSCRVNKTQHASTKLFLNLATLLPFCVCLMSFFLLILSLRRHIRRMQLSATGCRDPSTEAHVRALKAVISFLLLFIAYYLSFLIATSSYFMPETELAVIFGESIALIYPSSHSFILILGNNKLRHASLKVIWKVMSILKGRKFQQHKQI
# assay-method-text: Calcium mobilization assay, HEK293 cells transfected with TAS2R7 and Gα16-gust44
# Assay type: cell-based
# measurement-context: assay solution containing calcium; Figure 3A; read-out: EC50, TAS2R7, in the presence of calcium

>  <molecule>
O=S(=O)([O-])[O-].O=S(=O)([O-])[O-].O=S(=O)([O-])[O-].[Al+3].[Al+3] [Al2(SO4)3, aluminum sulfate]

>  <subject-of-test>
human TAS2R7 (Homo sapiens, UniProt Q9NYW3)

>  <unit-of-measurement>
µM

>  <EC50>
29

$$$$
